Data origin, for the record: patent US20240209089A1

Quick reference for EC50 among some binders
target: T1, CD8α-Fc fusion protein (human); assay: ELISA on coated CD8α-Fc, anti-his-HRP, four-parameter fit
T1 construct: also called CD8 α-Fc protein; CD8α-Fc tag antigen
T1 sequence (chain, as listed by the source): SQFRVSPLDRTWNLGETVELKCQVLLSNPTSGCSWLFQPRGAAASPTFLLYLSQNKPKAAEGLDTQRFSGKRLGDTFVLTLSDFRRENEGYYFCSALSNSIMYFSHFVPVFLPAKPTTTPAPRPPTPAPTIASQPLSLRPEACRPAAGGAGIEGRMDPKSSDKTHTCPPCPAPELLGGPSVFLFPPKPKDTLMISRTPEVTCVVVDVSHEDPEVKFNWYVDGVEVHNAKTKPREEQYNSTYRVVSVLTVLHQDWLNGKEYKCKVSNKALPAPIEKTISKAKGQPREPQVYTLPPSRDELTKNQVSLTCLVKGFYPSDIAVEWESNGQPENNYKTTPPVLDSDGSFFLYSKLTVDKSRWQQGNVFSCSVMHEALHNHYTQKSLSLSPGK

>  <BINDER>
C29-cHis antibody (VHH, HEK293 construct; an E. coli preparation is also described) VHH: QVQLVESGGGLVQAGGSLRLSCVASGFTSDDYVIGWFRQAPGKEREGVSCISSSDGTTNYADSVKGRFTISSDNAKNTVYLQMNSLKPEDTAVYYCAADPMRVCPYSGTYYGILGFGTSGQGTQVTVSS

>  <EC50 / ng/mL>
3.55

$$$$
>  <BINDER>
S5-cHis antibody (VHH, HEK293 construct; an E. coli preparation is also described; Biotinylated for the ForteBio assay; also called SNA006d; SNA006-d) VHH: QVQLVESGGGLVQAGGSLRVSCAASGGTFSSTAMGWFRQAPGKEREFVAAISWSGGYTYYADSVRGRFTISRDNALNTVSLQMNSLKPEDTAVYYCAADISGLDTVAAGIFTEPNIDYWGKGTLVTVSS

>  <EC50 / ng/mL>
2.28

$$$$
